Record form. Attribute: pIC50. Fill in for each entry.
measured_target: CYP3A4 (Homo sapiens)
Construct: from tissue; host or cells: human liver microsomes
Sequence (P08684 whole entry): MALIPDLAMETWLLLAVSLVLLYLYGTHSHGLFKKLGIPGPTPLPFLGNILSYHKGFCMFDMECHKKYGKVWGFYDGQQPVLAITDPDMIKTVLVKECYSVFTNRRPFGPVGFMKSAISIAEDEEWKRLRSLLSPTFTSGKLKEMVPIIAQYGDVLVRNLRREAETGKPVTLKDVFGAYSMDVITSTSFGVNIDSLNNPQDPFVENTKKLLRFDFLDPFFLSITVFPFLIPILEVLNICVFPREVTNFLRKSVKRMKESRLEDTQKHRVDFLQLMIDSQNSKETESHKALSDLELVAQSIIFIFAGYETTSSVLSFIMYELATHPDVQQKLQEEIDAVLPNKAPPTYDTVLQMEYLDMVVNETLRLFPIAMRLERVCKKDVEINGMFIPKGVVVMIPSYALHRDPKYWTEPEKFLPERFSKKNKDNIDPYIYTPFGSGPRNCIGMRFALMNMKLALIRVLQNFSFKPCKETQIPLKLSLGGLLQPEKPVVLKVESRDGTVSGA
procedure_summary: Inhibition on human hepatomicrosomes CYP3A4
Type: in vitro ADME
pIC50: −log10 of the molar value.

Query string: Which pIC50 reading was recorded for the molecule CC[C@@]1(O)C(=O)OCc2c1cc1n(c2=O)Cc2c-1nc1cc(F)c(C)c3c1c2C(NC(=O)C[C@@H](C)O)CCC3 (single isomer, unassigned) [Compound 6-2] ?
Result string: < 4.52

Query string: Let us now turn to CC[C@@]1(O)C(=O)OCc2c1cc1n(c2=O)Cc2c-1nc1cc(F)c(C)c3c1c2[C@@H](NC(=O)[C@@H](O)C1CC1)CCC3 [Compound 11-2]
Result string: < 4.52

Query string: Now consider CC[C@@]1(O)C(=O)OCc2c1cc1n(c2=O)Cc2c-1nc1cc(F)c(C3CC3)c3c1c2C(NC(=O)C[C@@H](C)O)CC3 (single isomer, unassigned) [Compound 17-2] .
Result string: < 4.52
